Attribution: paper PMC6009965

- study-target: α-glucosidase from Saccharomyces cerevisiae (Saccharomyces cerevisiae, UniProt P53341)
- Construct: purchased Sigma-Aldrich Co. LLC (St. Louis, MO)
- Sequence (P53341 whole entry): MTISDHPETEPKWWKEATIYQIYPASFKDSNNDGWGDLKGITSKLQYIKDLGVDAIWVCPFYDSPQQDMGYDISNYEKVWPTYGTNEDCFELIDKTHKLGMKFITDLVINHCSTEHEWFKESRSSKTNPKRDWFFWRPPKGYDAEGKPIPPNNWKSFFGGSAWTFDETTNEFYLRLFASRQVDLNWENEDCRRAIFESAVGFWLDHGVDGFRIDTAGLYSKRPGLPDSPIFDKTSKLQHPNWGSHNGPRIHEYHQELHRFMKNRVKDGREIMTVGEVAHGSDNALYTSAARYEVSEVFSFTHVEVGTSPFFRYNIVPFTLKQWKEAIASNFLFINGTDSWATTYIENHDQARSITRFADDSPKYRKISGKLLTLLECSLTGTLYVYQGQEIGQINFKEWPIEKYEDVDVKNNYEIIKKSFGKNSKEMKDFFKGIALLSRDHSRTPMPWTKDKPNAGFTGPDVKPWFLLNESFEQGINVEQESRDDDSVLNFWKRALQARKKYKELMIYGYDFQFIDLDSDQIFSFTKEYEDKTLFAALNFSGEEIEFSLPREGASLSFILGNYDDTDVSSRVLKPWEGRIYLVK
- experiment-summary: biochemical
- Protocol: Compounds A1, A2, A3, A4, A5, A6, B1, B2, B3, B4, C1, C2, C3, C4, C5, C6, C8, C9, D1 (chrysin), D2 (galangin) and D5 were obtained from Indofine Chemical Company, Inc. (Hillsborough, NJ). […] The α-glucosidase activity was measured using a method of Tadera et al.[31] slightly modified. […] The enzymatic reaction was monitored spectrophotometrically, in a microplate reader (Synergy HT, BIO-TEK), by measuring the absorbance at 405 nm. The obtained values correspond to the slope measured between 5 and 20 min. […]
pIC50: −log10 of the molar value.
quantity-name: pIC50

structure	quantity-name	relation-operator	endpoint-value
O=c1cc(-c2ccccc2)oc2cc(O)ccc12	pIC50	<	3.70
O=c1cc(-c2ccc(O)c(O)c2)oc2c(Cl)c(O)cc(O)c12	pIC50	=	4.26
O=c1cc(-c2ccc(O)cc2)oc2cc(O)cc(O)c12	pIC50	=	4.09
O=c1c(Cl)c(-c2ccc(O)c(O)c2)oc2c(Cl)c(O)cc(O)c12	pIC50	=	4.37
COc1ccc2c(=O)c(O)c(-c3ccc(O)c(O)c3)oc2c1OC	pIC50	=	4.07
